- System: U-251
- protocol.details: NCI tumour cell line growth inhibition, 48 h
The source made the active and inactive calls. Rule as the data show it: active = GI50 up to about 1.1 µM and inactive = higher.
Your answer must be one of the following: active, inactive

Look over these answered cases.
S=C(N/N=C/c1ccccn1)N1CCCCCC1    active
O=C(NNc1ccc([N+](=O)[O-])cc1)C1OC(CO)C(O)C1O (stereo not given)    inactive
COC(CC1(/C=C/O[Si](C(C)C)(C(C)C)C(C)C)C(=O)N(COCC[Si](C)(C)C)c2ccccc21)OC (stereo not given)    inactive
c1cc(-c2ccc(-c3ccc(C4=NC5CCCCC5N4)cc3)o2)ccc1C1=NC2CCCCC2N1 (stereo not given)    inactive
COc1ccc(Cc2cc(OC)c(OC)c(OC)c2)cc1O    active
CN/N=C(/CC(=O)c1sc(-n2nc(-c3ccccc3)cc2-c2ccccc2)nc1C)C(=O)Nc1ccc(Cl)c(Cl)c1    inactive
COC(=O)c1cc2c3c(cc(N(C)C)c2[nH]1)N(C(=O)c1cc2cc(OC)c(OC)c(OC)c2[nH]1)CC3CCl (stereo not given)    active
FC(F)(F)c1ccc2c(c1)nc(Cc1ccc(Cl)c(Cl)c1)n2CC1CCCN2CCCCC12 (stereo not given)    inactive

Req: Just curious, what result did O=C1C(Nc2ccccc2)=CC2=NCCc3n[nH]c1c32 get here?
Resp: inactive

Req: Just curious, what result did CC1(C)CC(=O)C(=CN2C(=O)CNC2=S)C(=O)C1 get here?
Resp: inactive

* * *

- System: ACHN
- protocol.details: NCI tumour cell line growth inhibition, 48 h
Activity calls are given as the source filed them. Cut-off read from the data, not from the text of the source: active = GI50 up to about 1.1 µM and inactive = higher.
measured.metric: GI50

These recorded examples may help you get a feel for the data.
CN(C)CCNC(=O)c1cccc2c1nc(-c1cccnc1)c1ccccc12    2.58 µM (inactive)
CC(C)OP(=O)(c1ccccc1)c1ccc2c(c1)OCCOCCOCCOCCO2 (stereo not drawn)    > 100 µM (inactive)
COc1ccc2cc(C(C)C(=O)N3CCOC3=O)ccc2c1 (stereo not drawn)    > 100 µM (inactive)
O=C1c2cc(Cl)ccc2-n2c(noc2=O)C2CSCN12 (stereo not drawn)    > 100 µM (inactive)
Cc1cc(C)c(S(=O)(=O)N(CCCCCCN)OCCCN)c(C)c1    17.2 µM (inactive)

Req: Need GI50, item N#C/C(=C/c1ccco1)C(=O)c1ccccc1
Resp: > 100 µM (inactive)

Req: Need GI50, item CC(=O)CC(=O)N(CCN(C(=O)CC(C)=O)c1ccccc1)c1ccccc1
Resp: > 100 µM (inactive)

Req: Need GI50, item CC(=O)NNc1nc(C)c(C(=O)NNC(=O)C(=O)Nc2ccc(C)c(C)c2)s1
Resp: > 100 µM (inactive)

* * *

- System: SK-MEL-28
- protocol.details: NCI tumour cell line growth inhibition, 48 h
Active and inactive are the calls of the source. Rule as the data show it: active = GI50 up to about 1.1 µM and inactive = higher.
GI50 by entry:

These recorded examples may help you get a feel for the data.
Cn1cc(C2(C)CC(C)(C)c3c2n(C)c2ccccc32)c2ccccc21 (stereo not drawn)    > 100 µM (inactive)
O=c1oc2c(ccc3c(O)cccc32)c2c1CCCC2    > 100 µM (inactive)

Req: Need GI50, item CC(C(=O)O)c1ccc(-c2ccccc2)c(F)c1 (stereo not drawn)
Resp: > 100 µM (inactive)

* * *

- Tested on: SK-MEL-28
- protocol.details: NCI tumour cell line growth inhibition, 48 h
Activity calls are given as the source filed them. Rule as the data show it: active = GI50 up to about 1.1 µM and inactive = higher. Where a SMILES comes first, the peptide text is derived from it.
GI50 by entry:

COc1cc(C2C(C(=O)Nc3ccccc3C)=C(C)NC(C)=C2C(=O)Nc2ccccc2C)ccc1O    > 100 µM (inactive)
CC1NOC(=O)C1/N=N/c1ccccc1Br (stereo not drawn)    31 µM (inactive)
Nc1nc(Cl)cc(NCC2(CO)CC(c3ccccc3)C2)n1 (stereo not drawn)    53.3 µM (inactive)
Nc1ccn(C2CC3OCC3O2)c(=O)n1 (stereo not drawn)    > 100 µM (inactive)

Req: Need GI50, item CCC(C)C(NC(=O)C1CCCN1C(=O)C(CC(C)C)NC(=O)C(CC(C)C)NC(=O)C(N)CC(C)C)C(=O)NC(C(=O)NCC(=O)NC(CC(N)=O)C(=O)NC(CC(C)C)C(=O)NC(CC(C)C)C(=O)NC(CC(C)C)C(N)=O)C(C)C (stereo not drawn) (H-LLLPIVGNLLL-NH2; configuration not given here)
Resp: > 50 µM (inactive)

Req: Need GI50, item CNC(=O)OCc1nc(SC(C)C)n(C)c1COC(=O)NC
Resp: > 100 µM (inactive)

Req: Need GI50, item CC(C)N(C(=O)C12C3C4C1C1C2C3C41I)C(C)C (stereo not drawn)
Resp: > 100 µM (inactive)

Req: Need GI50, item C=C1C(=O)OC2C1CC[C@H](C)C1(O)C(O)CC(=O)[C@@]21C (stereo partly drawn)
Resp: 13.6 µM (inactive)

Req: Need GI50, item CC(C)(C)c1ccc(O)c(CN(Cc2cc(C(C)(C)C)ccc2O)C2CCCCC2)c1
Resp: 14.5 µM (inactive)

* * *

- Tested on: COLO 205
- protocol.details: NCI tumour cell line growth inhibition, 48 h
Activity calls are given as the source filed them. Rule as the data show it: active = GI50 up to about 1.1 µM and inactive = higher.
Your answer must be one of the following: active, inactive

Req: Just curious, what result did CC(C)(C)OC(=O)NC(Cc1ccccc1)C(=O)N[C@H]1c2ccsc2/C(=N/O)[C@H]1O (stereo partly drawn) get here?
Resp: inactive

Req: Just curious, what result did S=C(N/N=C/c1ccccn1)N1CCCCCC1 get here?
Resp: active

Req: Just curious, what result did Nc1ccc(S(=O)(=O)Nc2nccs2)cc1 get here?
Resp: inactive

Req: Just curious, what result did Cc1ccc2nc(NC(=O)/C(Cc3nc4ccc(Cl)cc4nc3O)=N\NC(C)(C)C)sc2c1 get here?
Resp: inactive

Req: Just curious, what result did c1cn(C23C4C5C6C4C2C6C53)cn1 (stereo not drawn) get here?
Resp: inactive

Req: Just curious, what result did Cc1cc(C)c(S(=O)(=O)N(CCCCCCN)OCCCN)c(C)c1 get here?
Resp: inactive

Req: Just curious, what result did O=C(CCC(=O)OCC1OC(O)(CC2OC(CO)C(O)C(O)C2O)C(O)C1O)OCc1ccccc1 (stereo not drawn) get here?
Resp: inactive

Req: Just curious, what result did C=C1CC[C@](C)(O)[C@@]2(C)CC[C@H]3C(=C(C)C)C(=O)C[C@]3(C)C[C@H]12 get here?
Resp: inactive

Req: Just curious, what result did S=c1c2nc[nH]c2ncn1CCSC1=NC=NC2=NC=NC21 (stereo not drawn) get here?
Resp: inactive

Req: Just curious, what result did COc1ccc2c(-c3ccc(O)cc3)c(Oc3ccc(Cl)cc3)c(=O)oc2c1 get here?
Resp: inactive

Req: Just curious, what result did Cc1c(C(=O)/C=C/c2ccccc2)[n+]([O-])c2ccccc2[n+]1[O-] get here?
Resp: inactive

Req: Just curious, what result did CCCCCCCCCCCCOCCOCCOCCOCCOCCOCC(=O)NC(Cc1ccccc1)C(=O)Oc1ccc([N+](=O)[O-])cc1 (stereo not drawn) get here?
Resp: inactive

Req: Just curious, what result did O=[N+]([O-])c1cccc(/N=N/c2c(O)c(S(=O)(=O)O)cc3cc(S(=O)(=O)O)ccc23)c1 get here?
Resp: inactive

Req: Just curious, what result did COc1cc(/C=C/C(=O)O)ccc1C(=O)OCc1ccccc1 get here?
Resp: inactive

Req: Just curious, what result did CC1(C)C(=O)C=CC2(C)C1CC(O)C1(C)C2CCC2(C)C(c3ccoc3)OC(=O)C3OC321 (stereo not drawn) get here?
Resp: inactive

* * *

- System: IGROV-1
- protocol.details: NCI tumour cell line growth inhibition, 48 h
Active and inactive are the calls of the source. Rule as the data show it: active = GI50 up to about 1.1 µM and inactive = higher.
GI50 by entry:

CC(C)CC(N/C=C1/N=C(c2ccccc2)OC1=O)C(=O)O (stereo not given)    > 100 µM (inactive)
COc1ccccc1C[C@@H]1OC2(C=CC(=O)C=C2)O[C@H]1Cc1ccccc1OC    6.75 µM (inactive)
O=C(NCc1ccc(Cl)c(Cl)c1)c1nc2ccccc2nc1NCc1ccc(Cl)c(Cl)c1    > 100 µM (inactive)
O=C1/C(=C/c2ccc(Cl)cc2)Oc2cc(O)ccc21 [6-HYDROXY-4'-CHLORO AURONE]    33.4 µM (inactive)
Cn1c2ccccc2c2ccc3c(c21)C(=O)C(c1ccccc1)=CC3=O    13.4 µM (inactive)
COc1ccc(Nc2nc3ccccc3nc2C(=O)O)cc1    87.9 µM (inactive)

Now turn to the next compound.
Req: Need GI50, item CCOC(=O)Cc1c(C)c2ccc(OC(C)=O)c(OC(C)=O)c2oc1=O
Resp: 15.3 µM (inactive)

* * *

- Tested on: OVCAR-4
- protocol.details: NCI tumour cell line growth inhibition, 48 h
The source made the active and inactive calls. Cut-off read from the data, not from the text of the source: active = GI50 up to about 1.1 µM and inactive = higher.
GI50 by entry:

These recorded examples may help you get a feel for the data.
CC(=O)c1c2c(cc3c1CC1(Cc4cc5c(cc4C1=O)CCC5)C3)CCC2 (stereo not drawn)    38.5 µM (inactive)
CC(C)(C)OC(=O)NC(CSSCC(NC(=O)OC(C)(C)C)C(=O)O)C(=O)O (stereo not drawn)    > 100 µM (inactive)
COC(=O)C1=C(O)c2cc3c(cc2[C@H](c2cc(OC)c(OC)c(OC)c2)C1)OCO3    32.5 µM (inactive)
CCOC(=O)c1sc2c(c1OC(=O)c1ccc(OC)cc1)c(=O)n(-c1ccccc1)c(=S)n2-c1ccccc1    10.2 µM (inactive)
O=C(NP(=O)(N1CC1)N1CC1)c1cc(I)ccc1I    77.3 µM (inactive)
O=C(CC(=O)Nc1ccccc1Cl)NNC(c1cc(/N=N/c2ccc(Br)cc2)ccc1O)P(O)O (stereo not drawn)    2.34 µM (inactive)
O=C(CC1=NCCN1)c1ccccc1    > 750 µM (inactive)

Req: Need GI50, item CCOP(=O)(CC1OC(CO)C(O)C1O)OCC (stereo not drawn)
Resp: > 100 µM (inactive)

// data source = ChEMBL document CHEMBL1201862
